- target_of_assay: 5-HT2A receptor (Homo sapiens, UniProt P28223)
- Sequence (P28223 whole entry): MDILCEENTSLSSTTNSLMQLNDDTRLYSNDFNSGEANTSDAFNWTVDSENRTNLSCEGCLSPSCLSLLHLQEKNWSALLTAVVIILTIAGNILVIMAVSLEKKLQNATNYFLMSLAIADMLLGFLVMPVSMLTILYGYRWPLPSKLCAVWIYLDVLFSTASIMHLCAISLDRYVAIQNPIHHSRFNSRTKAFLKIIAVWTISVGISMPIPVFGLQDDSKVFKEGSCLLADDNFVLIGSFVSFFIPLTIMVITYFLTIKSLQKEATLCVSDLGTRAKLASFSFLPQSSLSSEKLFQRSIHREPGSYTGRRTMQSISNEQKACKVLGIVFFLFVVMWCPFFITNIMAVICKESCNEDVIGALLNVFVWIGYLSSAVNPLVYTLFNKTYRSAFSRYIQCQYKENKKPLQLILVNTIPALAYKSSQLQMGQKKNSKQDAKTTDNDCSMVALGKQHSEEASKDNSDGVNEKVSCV
- assay_protocol: biochemical
- Format: binding
- assay_setup: [3H] 5-HT binding; Ki=IC50/(1+[L]/[Kd]); read-out: Binding test Ki, 5-HT2A receptor
Where a name gives a salt, the structure may show the parent alone.
value_kind: pKi
# reply with the number alone; pKi is -log10 of concentration in mol/L

Task: pKi for COc1nn(C[C@H](C)N)c2c1ccc1occc12 [Example 37, fumarate] ?
Result: 8.06

---

- target_of_assay: 5-HT2A receptor (Homo sapiens, UniProt P28223)
- assay_protocol: biochemical
- Format: binding
Structures can show the parent of a compound that is named as a salt.
Below, each of the molecules is paired with its reported Ki value.
Just the number please, in nM, no unit attached.

| molecule | target_of_assay | Ki (nM) |
| --- | --- | --- |
| CCc1nn(CCN)c2c1ccc1occc12 [Example 55, dihydrochloride] | 5-HT2A receptor (Homo sapiens, UniProt P28223) | 50 |

Moving on to another molecule below.
Task: Ki for NCCn1ncc2ccc3sc(Br)cc3c21 [Example 20, hydrochloride] ?
Result: 18
